system: Vero E6 infected with SARS-CoV-2; test: SARS-CoV-2 infection rate relative to infected DMSO; higher = more infection, active = 60 or less; conditions: 24 h

# compound, SARS-CoV-2 infection rate / %
records = [
    ("CCOC(=O)C1=C(C)NC(C)=C(C(=O)OCC)C1c1ccccc1/C=C/C(=O)OC(C)(C)C [lacidipine] (10 µM)", 106),
    ("CC/C(=C(/CC)c1ccc(OP(=O)(O)O)cc1)c1ccc(OP(=O)(O)O)cc1 [fosfestrol] (10 µM)", 96),
    ("CN(C)CCCC(=O)Nc1ccc(C(=O)Nc2cccc(Nc3ncc(Cl)c(-c4c[nH]c5ccccc45)n3)c2)cc1 (10 µM)", 101),
    ("COc1cc(/C=C(\\C#N)C(N)=O)cc(CSc2nc3ccccc3s2)c1O [tyrphostin-AG-825] (10 µM)", 108),
    ("Nc1ccn([C@H]2C[C@H](O)[C@@H](CO)O2)c(=O)n1 [torcitabine] (10 µM)", 108),
    ("CC1(C)S[C@@H]2[C@H](NC(=O)[C@H](N)c3ccc(O)cc3)C(=O)N2[C@H]1C(=O)O [amoxicillin] (10 µM)", 102),
    ("CCCCc1ccc(NS(=O)(=O)c2ccc(F)cc2)cc1 (10 µM)", 102),
    ("Cc1c(Cn2c(C)nc3c(C(=O)O)cc(N4CCOCC4)cc32)cccc1C(F)(F)F (0.833333 µM)", 118),
    ("NCC(=O)N[C@@H](CCC(N)=O)C(=O)O (10 µM)", 108),
    ("CN(N=O)C(=O)N[C@@H](C=O)[C@@H](O)[C@H](O)[C@H](O)CO [streptozotocin] (10 µM)", 96),
    ("CS(=O)(=O)Nc1ccc(-c2coc3cc(OCc4cccc(C(=O)O)c4)ccc3c2=O)cc1 (10 µM)", 97),
    ("N#Cc1ccc2[nH]cc(CCCCN3CCN(c4ccc5oc(C(N)=O)cc5c4)CC3)c2c1 [vilazodone] (0.833333 µM)", 102),
    ("Clc1ccc(C(OCCN2CCCCC2)c2ccccc2)cc1 (configuration not stated) [cloperastine] (10 µM)", 75.5),
    ("O=C(NC1CCC1)c1ccc(C#Cc2cccc(F)c2)nc1 (10 µM)", 99),
    ("Cc1oc(-c2ccccc2)nc1CCC(=O)c1ccc(CC2SC(=O)NC2=O)cc1 (configuration not stated) [darglitazone] (10 µM)", 98.5),
    ("O=C(O)CCCc1ccc(N(CCCl)CCCl)cc1 [chlorambucil] (10 µM)", 94),
    ("COc1ccccc1OCC(O)CO (configuration not stated) [guaifenesin] (10 µM)", 112),
]

Recorded values, source the supplement of paper PMC13380429.
